# Assay Remarks: Plasma pharmacokinetics of MDPV and metabolites after i.p. MDPV administration
# Measurement Setup: read-out: Cmax (molar); rat plasma; i.p. MDPV 2 mg/kg
Assay Endpoint: Cmax

Identify the reported Cmax for the following entry. CCCC(C(=O)c1ccc2c(c1)OCO2)N1CCCC1 (stereo not shown) [MDPV, 3,4-methylenedioxypyrovalerone]
~500 nM
